# Subject of test: Keap1/Nrf2 (Homo sapiens) (UniProt Q16236+Q14145)
# Sequence (Q14145 whole entry, looked up): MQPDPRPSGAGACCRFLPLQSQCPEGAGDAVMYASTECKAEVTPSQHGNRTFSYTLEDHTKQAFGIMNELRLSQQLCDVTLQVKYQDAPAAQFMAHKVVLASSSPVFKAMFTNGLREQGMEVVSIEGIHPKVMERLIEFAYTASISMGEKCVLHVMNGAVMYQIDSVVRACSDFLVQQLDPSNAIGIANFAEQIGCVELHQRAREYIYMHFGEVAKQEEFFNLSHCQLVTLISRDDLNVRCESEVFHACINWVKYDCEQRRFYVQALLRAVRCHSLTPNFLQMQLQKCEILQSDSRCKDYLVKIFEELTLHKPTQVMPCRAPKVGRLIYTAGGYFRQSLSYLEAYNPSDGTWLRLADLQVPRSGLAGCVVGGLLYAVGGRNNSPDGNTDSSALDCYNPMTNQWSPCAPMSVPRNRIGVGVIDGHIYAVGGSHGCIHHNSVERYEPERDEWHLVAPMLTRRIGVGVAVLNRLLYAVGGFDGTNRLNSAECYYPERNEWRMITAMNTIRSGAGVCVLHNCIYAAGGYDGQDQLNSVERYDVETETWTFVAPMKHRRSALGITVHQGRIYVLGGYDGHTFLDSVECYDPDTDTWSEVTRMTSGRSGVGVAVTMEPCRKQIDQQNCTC
# Sequence (Q16236 whole entry, looked up): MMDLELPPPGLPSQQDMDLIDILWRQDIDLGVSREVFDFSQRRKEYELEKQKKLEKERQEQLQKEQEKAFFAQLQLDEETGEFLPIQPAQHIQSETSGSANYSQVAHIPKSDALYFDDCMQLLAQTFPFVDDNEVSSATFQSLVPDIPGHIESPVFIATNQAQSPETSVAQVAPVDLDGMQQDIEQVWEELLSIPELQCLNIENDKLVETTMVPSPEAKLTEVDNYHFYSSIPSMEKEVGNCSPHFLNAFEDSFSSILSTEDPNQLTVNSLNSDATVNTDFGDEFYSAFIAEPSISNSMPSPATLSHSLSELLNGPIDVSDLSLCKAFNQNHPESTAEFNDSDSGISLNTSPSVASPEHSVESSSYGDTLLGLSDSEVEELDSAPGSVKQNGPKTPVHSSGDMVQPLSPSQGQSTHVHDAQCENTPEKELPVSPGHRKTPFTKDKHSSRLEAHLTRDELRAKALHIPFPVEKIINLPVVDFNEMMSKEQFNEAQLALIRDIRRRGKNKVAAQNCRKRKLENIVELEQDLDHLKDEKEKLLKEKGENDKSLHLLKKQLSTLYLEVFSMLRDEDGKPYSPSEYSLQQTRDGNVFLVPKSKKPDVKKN
# Assay details: Induction of Nrf2/Keap1 in human HepG2-ARE-C8 cells assessed as induction of ARE activity at 50 uM after 12 hrs by luciferase reporter gene assay relative to control
Reported metric: fold change (FC)

Compound structure	fold change (FC)
Cc1cc(O)c(C(=O)/C=C/c2ccc(N(C)C)cc2)c(=O)o1	8.09

[P] Cc1cc(O)c(C(=O)/C=C/c2ccc(C#N)cc2)c(=O)o1
[Q] Cc1cc(O)c(C(=O)/C=C/c2ccc(F)cc2F)c(=O)o1
Just tell me: smaller fold change (FC) value, P or Q ? Respond with the label that goes with your answer. P

[a] Cc1cc(O)c(C(=O)/C=C/c2ccccc2Cl)c(=O)o1
[b] Cc1cc(O)c(C(=O)/C=C/c2ccc3ccccc3c2)c(=O)o1
I'd appreciate it if you could identify which of a and b has the greater fold change (FC). Indicate your choice by writing its label. b
(b: 2.17, a: 0.95)

###

# Subject of test: Keap1/Nrf2 (Homo sapiens) (UniProt Q16236+Q14145)
# Assay details: Induction of Nrf2/Keap1 in human HepG2-ARE-C8 cells assessed as induction of ARE activity at 50 uM after 12 hrs by luciferase reporter gene assay relative to control
Reported metric: fold change (FC)

Compound structure	fold change (FC)
Cc1cc(O)c(C(=O)/C=C/c2ccc([N+](=O)[O-])cc2)c(=O)o1	2.48
Cc1cc(O)c(C(=O)/C=C/c2ccccc2[N+](=O)[O-])c(=O)o1	0.65

[A] Cc1cc(O)c(C(=O)/C=C/c2cccc(Cl)c2)c(=O)o1
[B] Cc1cc(O)c(C(=O)/C=C/c2ccccc2C(F)(F)F)c(=O)o1
In the pair A and B , the larger recorded fold change (FC) belongs to which? Write down the label attached to your selection. A

###

# Subject of test: Keap1/Nrf2 (Homo sapiens) (UniProt Q16236+Q14145)
# Assay details: Induction of Nrf2/Keap1 in human HCT116 cells assessed as induction of ARE activity at 20 uM after 12 hrs by luciferase reporter gene assay relative to control
# Assay type: cell-based
# Run parameters: HCT-116
Reported metric: fold change (FC)

Compound structure	Reported metric	Value measured
Cc1cc(O)c(C(=O)/C=C/c2ccc(Cl)c(Cl)c2)c(=O)o1	fold change (FC)	8
Cc1cc(O)c(C(=O)/C=C/c2cccc(Cl)c2)c(=O)o1	fold change (FC)	6.46
Cc1cc(O)c(C(=O)/C=C/c2ccc(-c3ccccc3)cc2)c(=O)o1	fold change (FC)	5.67

###

# Subject of test: Keap1/Nrf2 (Homo sapiens) (UniProt Q16236+Q14145)
# Assay details: Induction of Nrf2/Keap1 in human HCT116 cells assessed as induction of ARE activity at 20 uM after 12 hrs by luciferase reporter gene assay relative to control
# Format: cell-based
# Run parameters: HCT-116
Reported metric: fold change (FC)

[1] Cc1cc(O)c(C(=O)/C=C/c2ccc(Cl)cc2)c(=O)o1
[2] Cc1cc(O)c(C(=O)/C=C/c2ccco2)c(=O)o1
[3] Cc1cc(O)c(C(=O)/C=C/c2ccc3ccccc3c2)c(=O)o1
Order all 3 entries above by recorded fold change (FC), highest first, lowest last. Please write the labels in the order that was asked for. 1, 2, 3

###

# Subject of test: Keap1/Nrf2 (Homo sapiens) (UniProt Q16236+Q14145)
# Assay details: Induction of Nrf2/Keap1 in human HepG2-ARE-C8 cells assessed as induction of ARE activity at 50 uM after 12 hrs by luciferase reporter gene assay relative to control
Reported metric: fold change (FC)

Solved cases (5 shown):
Compound structure	fold change (FC)
Cc1cc(O)c(C(=O)/C=C/c2ccc(F)cc2)c(=O)o1	5.79
COc1ccc(/C=C/C(=O)c2c(O)cc(C)oc2=O)cc1	7.37
Cc1cc(O)c(C(=O)/C=C/c2ccccc2)c(=O)o1	6.84
Cc1cc(O)c(C(=O)/C=C/c2ccc(Cl)cc2Cl)c(=O)o1	3.27
COc1ccccc1/C=C/C(=O)c1c(O)cc(C)oc1=O	2.08

[1] COc1ccc(/C=C/C(=O)c2c(O)cc(C)oc2=O)c(OC)c1
[2] Cc1cc(O)c(C(=O)/C=C/c2ccc(Cl)c(Cl)c2)c(=O)o1
Task for the reader: decide whether 1 or 2 has the larger fold change (FC). Lab note: record the label of whichever item you select. 1

[I] CCOc1ccc(/C=C/C(=O)c2c(O)cc(C)oc2=O)cc1
[II] Cc1cc(O)c(C(=O)/C=C/c2ccccc2F)c(=O)o1
For the pair I and II , which entry has the numerically smaller recorded fold change (FC)? Give the label of your selection. II
(II: 3.04, I: 5.5)

[P] Cc1cc(O)c(C(=O)/C=C/c2ccc(-c3ccccc3)cc2)c(=O)o1
[Q] Cc1cc(O)c(C(=O)/C=C/c2ccco2)c(=O)o1
Form: Entry with minimum fold change (FC) (choose one): P / Q // caller expects the label of the chosen entry P
(P: 3.6, Q: 5.48)

[A] Cc1cc(O)c(C(=O)/C=C/c2ccc[nH]2)c(=O)o1
[B] Cc1cc(O)c(C(=O)/C=C/c2cccs2)c(=O)o1
Which entry has a larger number for fold change (FC), A or B ? Let me know the label of the one you choose. B
